Value source: ChEMBL document CHEMBL1143656

target: Gamma-secretase; experiment: Inhibitory concentration against Gamma-secretase in whole cell inhibition assay using SH-SY5Y cells
measurement-kind: IC50 (nM)
Note: unit nM is implicit; provide only the numeric part.

Check out these entries, answers already filled in.
>  <molecule>
O=S(=O)(NC1C2CCC1Cc1cc(OCCN3CCCCC3)ccc1C2)c1ccc(Cl)s1 (centres undefined)

>  <target-of-assay>
Gamma-secretase

>  <measurement-kind>
IC50

>  <observed>
73

$$$$
>  <molecule>
O=S(=O)(NC1C2CCC1Cc1cc(/C=C/CN3CCOCC3)ccc1C2)c1ccc(Cl)s1 (stereo in doubt; form 1)

>  <target-of-assay>
Gamma-secretase

>  <measurement-kind>
IC50

>  <observed>
1

$$$$
>  <molecule>
O=C(Nc1ccc2c(c1)CC1CCC(C2)C1NS(=O)(=O)c1ccc(Cl)s1)c1ccccn1 (centres undefined)

>  <target-of-assay>
Gamma-secretase

>  <measurement-kind>
IC50

>  <observed>
12

$$$$
>  <molecule>
CN1CCN(C/C=C/c2ccc3c(c2)CC2CCC(C3)C2NS(=O)(=O)c2ccc(Cl)s2)CC1 (centres undefined)

>  <target-of-assay>
Gamma-secretase

>  <measurement-kind>
IC50

>  <observed>
39

$$$$
>  <molecule>
O=S(=O)(NC1C2CCC1Cc1cc(OCCN3CCC(O)CC3)ccc1C2)c1ccc(Cl)s1 (centres undefined)

>  <target-of-assay>
Gamma-secretase

>  <measurement-kind>
IC50

>  <observed>
623

$$$$

Now turn to the next molecule.
Q) May I ask what IC50 has been recorded for O=S(=O)(NC1C2CCC1Cc1ccccc1C2)c1ccccc1 (centres undefined) ?
A) 190

====

molecular target: Gamma-secretase; experiment: Inhibitory concentration against Gamma-secretase in whole cell inhibition assay using SH-SY5Y cells
In this section, each of the compounds is paired with its reported pIC50.
Friendly reminder that pIC50 comes from taking -log10 of the concentration in mol/L.

Check out these entries, answers already filled in.
>  <compound>
O=S(=O)(NC1C2CCC1Cc1ccccc1C2)c1ccc(F)cc1 (stereo not given)

>  <target-of-assay>
Gamma-secretase

>  <pIC50>
6.89

$$$$
>  <compound>
O=C(Nc1ccc2c(c1)CC1CCC(C2)C1NS(=O)(=O)c1ccccc1)OCc1ccccc1 (stereo not given)

>  <target-of-assay>
Gamma-secretase

>  <pIC50>
7.13

$$$$

Q) Recall the recorded pIC50 for O=C(CN1CCOCC1)Nc1ccc2c(c1)CC1CCC(C2)C1NS(=O)(=O)c1ccc(Cl)s1 (stereo not given) with Gamma-secretase and state it.
A) 8.15

====

molecular target: Gamma-secretase; experiment: Inhibitory concentration against Gamma-secretase in whole cell inhibition assay using SH-SY5Y cells
In this section, each of the molecules is paired with its reported IC50.
Note: unit nM is implicit; provide only the numeric part.

Check out these entries, answers already filled in.
>  <molecule>
O=S(=O)(NC1C2CCC1Cc1cc(F)ccc1C2)c1ccccc1 (stereo unspecified)

>  <measurement-kind>
IC50

>  <uom>
nM

>  <observed>
70

$$$$
>  <molecule>
O=S(=O)(NC1C2CCC1Cc1ccccc1C2)c1cccs1 (stereo unspecified)

>  <measurement-kind>
IC50

>  <uom>
nM

>  <observed>
50

$$$$

Now turn to the next molecule.
Q) May I ask what IC50 has been recorded for O=C(Nc1ccc2c(c1)CC1CCC(C2)C1NS(=O)(=O)c1ccccc1)c1ccccn1 (stereo unspecified) ?
A) 75

====

In this section, each of the compounds is paired with its reported IC50.
molecular target: Gamma-secretase; assay: Inhibitory concentration against Gamma-secretase in whole cell inhibition assay using SH-SY5Y cells
Note: unit nM is implicit; provide only the numeric part.

Check out these entries, answers already filled in.
>  <compound>
O=S(=O)(NC1C2CCC1Cc1c(F)cccc1C2)c1ccc(Cl)s1 (stereo not given)

>  <uom>
nM

>  <observed>
34

$$$$
>  <compound>
O=S(=O)(NC1C2CCC1Cc1c(Cl)cccc1C2)c1ccc(Cl)s1 (stereo not given)

>  <uom>
nM

>  <observed>
175

$$$$

Q) May I ask what IC50 has been recorded for CN1CCN(CC(=O)Nc2ccc3c(c2)CC2CCC(C3)C2NS(=O)(=O)c2ccc(Cl)s2)CC1 (stereo not given) ?
A) 69

Q) Now the compound Cc1ccc(S(=O)(=O)NC2C3CCC2Cc2ccccc2C3)cc1 (stereo not given)
A) 651

====

In this section, each of the compounds is paired with its reported pIC50.
biological target: Gamma-secretase; assay: Inhibitory concentration against Gamma-secretase in whole cell inhibition assay using SH-SY5Y cells
Friendly reminder that pIC50 comes from taking -log10 of the concentration in mol/L.

Check out these entries, answers already filled in.
>  <compound>
O=C(CNCc1ccccc1)Nc1ccc2c(c1)CC1CCC(C2)C1NS(=O)(=O)c1ccc(Cl)s1 (stereo not given)

>  <target-of-assay>
Gamma-secretase

>  <observed>
5.46

$$$$
>  <compound>
Nc1ccc2c(c1)CC1CCC(C2)C1NS(=O)(=O)c1ccccc1 (stereo not given)

>  <target-of-assay>
Gamma-secretase

>  <observed>
5.22

$$$$
>  <compound>
CCCCS(=O)(=O)NC1C2CCC1Cc1ccccc1C2 (stereo not given)

>  <target-of-assay>
Gamma-secretase

>  <observed>
6.21

$$$$

Now turn to the next compound.
Q) May I ask what pIC50 has been recorded for O=S(=O)(NC1C2CCC1Cc1cc(/C=C/CN3CCCCC3)ccc1C2)c1ccc(Cl)s1 (stereo not given) ?
A) 6.82

====

molecular target: Gamma-secretase; assay: Inhibitory concentration against Gamma-secretase in whole cell inhibition assay using SH-SY5Y cells
// boundary case: IC50 equal to 100 nM maps to Not satisfied; strictly smaller maps to Satisfied

Example entries and their recorded answers appear below.
>  <compound>
O=S(=O)(NC1C2CCC1Cc1ccccc1C2)c1ccc(Cl)cc1 (stereo not given)

>  <assigned-label>
Not satisfied

$$$$
>  <compound>
O=[N+]([O-])c1ccc(S(=O)(=O)NC2C3CCC2Cc2ccccc2C3)cc1 (stereo not given)

>  <assigned-label>
Not satisfied

$$$$
>  <compound>
COCC(=O)Nc1ccc2c(c1)CC1CCC(C2)C1NS(=O)(=O)c1ccccc1 (stereo not given)

>  <assigned-label>
Not satisfied

$$$$
>  <compound>
O=S(=O)(NC1C2CCC1Cc1cc(F)ccc1C2)c1ccc(Cl)s1 (stereo not given)

>  <assigned-label>
Satisfied

$$$$
>  <compound>
O=C(CN1CCN(c2ccccc2)CC1)Nc1ccc2c(c1)CC1CCC(C2)C1NS(=O)(=O)c1ccc(Cl)s1 (stereo not given)

>  <assigned-label>
Satisfied

$$$$

Q) Decide: IC50 of O=S(=O)(NC1C2CCC1Cc1cc(/C=C/CN3CCOCC3)ccc1C2)c1ccc(Cl)s1 (racemic) strictly below 100 nM?
A) Satisfied

====

target: Gamma-secretase; assay: Inhibitory concentration against Gamma-secretase in whole cell inhibition assay using SH-SY5Y cells
pIC50: −log10 of the molar value.
In this section, each of the compounds is paired with its reported pIC50.

Check out these entries, answers already filled in.
>  <compound>
O=C(Nc1ccc2c(c1)CC1CCC(C2)C1NS(=O)(=O)c1ccccc1)c1ccncc1 (stereo not drawn)

>  <target-of-assay>
Gamma-secretase

>  <pIC50>
< 6.00

$$$$
>  <compound>
CC(=O)Nc1ccc2c(c1)CC1CCC(C2)C1NS(=O)(=O)c1ccccc1 (stereo not drawn)

>  <target-of-assay>
Gamma-secretase

>  <pIC50>
< 6.00

$$$$

Q) May I ask what pIC50 has been recorded for CCc1ccc(S(=O)(=O)NC2C3CCC2Cc2ccccc2C3)cc1 (stereo not drawn) ?
A) < 6.00

====

In this section, each of the compounds is paired with its reported IC50.
target: Gamma-secretase; experiment: Inhibitory concentration against Gamma-secretase in whole cell inhibition assay using SH-SY5Y cells

Check out these entries, answers already filled in.
>  <compound>
CCCCCC(=O)Nc1ccc2c(c1)CC1CCC(C2)C1NS(=O)(=O)c1ccccc1 (stereo not drawn)

>  <IC50>
> 1 µM

$$$$
>  <compound>
CCS(=O)(=O)NC1C2CCC1Cc1ccccc1C2 (stereo not drawn)

>  <IC50>
> 1 µM

$$$$

Q) May I ask what IC50 has been recorded for O=S(=O)(NC1C2CCC1Cc1ccccc1C2)c1ccc(C(F)(F)F)cc1 (stereo not drawn) ?
A) > 1 µM

====

molecular target: Gamma-secretase; assay: Inhibitory concentration against Gamma-secretase in whole cell inhibition assay using SH-SY5Y cells
pIC50: −log10 of the molar value.
Classification field: true = pIC50 at or over 7; false = pIC50 under 7.

Example entries and their recorded answers appear below.
>  <compound>
O=S(=O)(NC1C2CCC1Cc1cc(/C=C/Cn3ccnc3)ccc1C2)c1ccc(Cl)s1 (stereo unspecified)

>  <target-of-assay>
Gamma-secretase

>  <assigned-label>
true

$$$$
>  <compound>
Cc1cccc(S(=O)(=O)NC2C3CCC2Cc2ccccc2C3)c1 (stereo unspecified)

>  <target-of-assay>
Gamma-secretase

>  <assigned-label>
false

$$$$
>  <compound>
O=S(=O)(NC1C2CCC1Cc1cc(OCCN3CCC(O)C3)ccc1C2)c1ccc(Cl)s1 (stereo unspecified)

>  <target-of-assay>
Gamma-secretase

>  <assigned-label>
false

$$$$
>  <compound>
CCCS(=O)(=O)NC1C2CCC1Cc1ccccc1C2 (stereo unspecified)

>  <target-of-assay>
Gamma-secretase

>  <assigned-label>
false

$$$$

Query compound follows.
Q) // inclusive: pIC50 at least 7? input: O=C(CN1CCCCC1)Nc1ccc2c(c1)CC1CCC(C2)C1NS(=O)(=O)c1ccc(Cl)s1 (stereo unspecified)
A) true
